This collection of values is drawn from patent US6673965B1.

experiment: i.v. pharmacokinetic parameters and oral bioavailability in male Sprague Dawley rat; type: in vivo; conditions: male, Sprague Dawley, rat, whole blood, iv, 2 mg/kg, i.v. dose = 2.0 mg/kg, two-compartment model, read-out: T1/2 (α)
measurement type: half-life (min)
Use min as the unit, but write only the number.

Value of half-life reported for the molecule `CNC(=O)[C@@H](NC(=O)[C@H](Cc1ccc2ccccc2c1)[C@H](OC(C)C)C(=O)NO)C(C)(C)C` is 10.8

---

Test: i.v. pharmacokinetic parameters and oral bioavailability in male Sprague Dawley rat
Format: in vivo
Settings: male, Sprague Dawley, whole blood, iv, i.v. dose = 2.0 mg/kg, read-out: Vdss
Procedure: Procedure 4: The bioavailability of test compounds was investigated using the following bio-equivalence studies. A Study to Estimate the i.v. Pharmacokinetic Parameters and Oral Bioavailability in Male Sprague Dawley Rat […] On study day two, the animals (fasted) received test compound as a solution at a target dosage of 8 umol/kg by oral gavage (16 mL/kg). […] Blood concentrations of test compound were quantified by LC/MS/MS (LLQ=10.0 ng/mL). […]
measurement type: Vd (L/kg)
Use L/kg as the unit, but write only the number.

Value of Vd reported for the compound `CNC(=O)[C@@H](NC(=O)[C@H](Cc1ccc2ccccc2c1)[C@H](OC(C)C)C(=O)NO)C(C)(C)C` is 3.25
